// data source = the supplement of paper PMC10567573

B1: SMOC2 (parent)
chain: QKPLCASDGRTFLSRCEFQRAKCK

Variants of: B1
Test: protein stability index of a GFP-peptide fusion (GPS, HEK-293T) (PSI 1-6); higher = more stable;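 also: lentivirally expressed fusions sorted by FACS into six bins by GFP to DsRed ratio, PSI derived from sequencing read proportions per bin multiplied by bin number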
Conditions: c terminus: a fixed tail appended
measurement.label: protein stability index
Enter the number alone.

# example entries with known answers
QKPLCASDGRTFESRCEFQRAKCK [L13E] = 3.72
LKPLCASDGRTFLSRCEFQRAKCK [Q1L] = 2.17

Entry under test: QKPLCASDGRTFLSRCEFQRASCK [K22S] . Its protein stability index was 3.06

Entry under test: QKPLCASDGRTFLVRCEFQRAKCK [S14V] . Its protein stability index was 3.22

Entry under test: QKPLCASDGRTFLSRCEFQWAKCK [R20W] . Its protein stability index was 2.4

Entry under test: QKPLCASDGYTFLSRCEFQRAKCK [R10Y] . Its protein stability index was 2.91

Entry under test: QKPLIASDGRTFLSRCEFQRAKCK [C5I] . Its protein stability index was 1.74

Entry under test: MKPLCASDGRTFLSRCEFQRAKCK [Q1M] . Its protein stability index was 2.78

Entry under test: QKPLDASDGRTFLSRCEFQRAKCK [C5D] . Its protein stability index was 3.29

Entry under test: QWPLCASDGRTFLSRCEFQRAKCK [K2W] . Its protein stability index was 2.48

Entry under test: QKPLCASDGRTQLSRCEFQRAKCK [F12Q] . Its protein stability index was 4.5

Entry under test: QKPLCASAGRTFLSRCEFQRAKCK [D8A] . Its protein stability index was 2.37

Entry under test: QKPLCASDGRTFLSRCEFQRWKCK [A21W] . Its protein stability index was 1.85

Entry under test: QKPLCASDGRTFLWRCEFQRAKCK [S14W] . Its protein stability index was 2.21

Entry under test: QKPLCASDGRTFLSRCEFNRAKCK [Q19N] . Its protein stability index was 3.34

Entry under test: QKPLCASDGRTFLSRCEFHRAKCK [Q19H] . Its protein stability index was 3.58

Entry under test: QKPLCNSDGRTFLSRCEFQRAKCK [A6N] . Its protein stability index was 2.63

Entry under test: QKPLCASDGRTGLSRCEFQRAKCK [F12G] . Its protein stability index was 3.93

Entry under test: QKPLCASLGRTFLSRCEFQRAKCK [D8L] . Its protein stability index was 1.97

Entry under test: QKPLCASDGRTFLSRGEFQRAKCK [C16G] . Its protein stability index was 4.3

Entry under test: QKPLCASDGRTFLPRCEFQRAKCK [S14P] . Its protein stability index was 4.08

Entry under test: QKPLCASDGRTFLLRCEFQRAKCK [S14L] . Its protein stability index was 3.76

Entry under test: QKPLCASDGCTFLSRCEFQRAKCK [R10C] . Its protein stability index was 2.89

Entry under test: QKPLCASDGRMFLSRCEFQRAKCK [T11M] . Its protein stability index was 2.89

Entry under test: QKPLCASDGRTFLSRCEFQEAKCK [R20E] . Its protein stability index was 3.45

Entry under test: QKPLCASDGRTFLSRSEFQRAKCK [C16S] . Its protein stability index was 3.83

Entry under test: QKPLCASDGRTFLSRCEFQRAKCQ [K24Q] . Its protein stability index was 2.64

Entry under test: QKPECASDGRTFLSRCEFQRAKCK [L4E] . Its protein stability index was 3.77
